- Read-out: Cytochrome P450 7A1 (Homo sapiens) (UniProt P22680)
- TEST SUMMARY: LTEA_HepaRG_CYP7A1: Life Technologies and Expression Analysis (LTEA) Assay for Cytochrome P450 7A1 (CYP7A1) using HepaRG (AID 2283496)
- CONDITION LABEL: mRNA level, 48 h; actives raise or lower the signal
The source made the active and inactive calls. The calls were made as follows: active = hit-call score of the fitted dose curve at least 0.9, where 1 is the maximum; inactive = score below 0.9.
Your response should consist of one outcome taken from active, inactive

Exercise: Recorded test call requested for C[C@]12C[C@H](O)[C@H]3[C@@H](CCC4=CC(=O)CC[C@@]43C)[C@@H]1CC[C@@H]2C(=O)CO
Key: inactive

Exercise: Recorded test call requested for S=C([S-])NCCNC(=S)[S-].[Mn+2]
Key: active

Exercise: Recorded test call requested for CCSC(=O)N(CC(C)C)CC(C)C
Key: inactive

Exercise: Recorded test call requested for CCCCCOC(=O)COc1cc(N2C(=O)C3=C(CCCC3)C2=O)c(F)cc1Cl
Key: inactive
